# System: A498 renal
# measurement notes: NCI tumour cell line growth inhibition, 48 h
experimental endpoint: TGI

Illustrative cases are given below, each with its answer.
COc1ccc(C2C3=C(COC3=O)Oc3cc4c(cc32)OCO4)c(OC)c1 (stereo not drawn): > 100 µM
Nc1nc(Cl)cc(NCC2(O)CC2)n1: > 100 µM

Pending compound:
The compound COc1ccc(N2C(=O)[C@H]3CC(C)c4c([nH]c5ccccc45)[C@H]3C2=O)cc1 (stereo partly drawn) , tested on A498 renal, showed TGI of 77.7 µM

----------
The reader will find reported TGI values listed item by item below.
# Test system: HL-60(TB) leukemia
# measurement notes: NCI tumour cell line growth inhibition, 48 h
The reply should contain only the number, in µM.

COc1ccc2nc(/C(N)=C\C#N)ccc2c1: 46.5
O=[N+]([O-])c1ccc(NC(=S)N=Nc2c(O)[nH]c3ccc([N+](=O)[O-])cc23)cc1: 73.1
Cc1cc(C)c2c(=O)cc(-c3cccc(F)c3)[nH]c2n1: 0.226
Cc1cc(S(=O)(=O)Nc2n[nH]c(-c3ccccn3)n2)c(S)cc1Cl: 41.2

Pending compound:
The compound Nc1ccccc1C#C/C=C\C#Cc1ccccc1[N+](=O)[O-] , tested on HL-60(TB) leukemia, showed TGI of 60.7

----------
# System: HCC-2998 colon
# measurement notes: NCI tumour cell line growth inhibition, 48 h
experimental endpoint: GI50

C=C1C(=O)O[C@H]2[C@H]1CC/C(COC(=O)c1cc3cc(Cl)ccc3[nH]1)=C\CC[C@@]1(C)O[C@@H]21: 1.4 µM
OCCNc1ncnc2c1ncn2Cc1cccc(COc2cccc(OCc3cccc(Cn4cnc5c(NCCO)ncnc54)c3)c2)c1: 15.1 µM
COc1ccc(Cn2cc3c(c2)-c2oncc2CC3)cc1: 5.98 µM
COc1ccc(C2=NN(C=O)C(c3cccc(Nc4ccnc5cc(Cl)ccc45)c3)C2)cc1 (stereo not given): 11.7 µM

Pending molecule:
// recorded GI50 for Cc1cc2c(cc1C)N(C(=O)CCl)CCN2C(=O)CCl : 1.78 µM

----------
# System: ACHN renal
# measurement notes: NCI tumour cell line growth inhibition, 48 h
experimental endpoint: GI50

Illustrative cases are given below, each with its answer.
CN1C(=O)N(C)C2C1NN=c1s/c(=C\c3ccc(F)cc3)c(=O)n12 (stereo not given): 4.39 µM
O=C(O)c1ccc2c(c1)CCCC(c1ccc(Cl)cc1Cl)=C2c1ccc(O[C@H]2CCN(CCCF)C2)cc1: 11.7 µM
Cn1c2c(c3ccc(Cl)c(Cl)c31)C(C#N)C1(CCNCC1)NC2=O (stereo not given): 1.82 µM
COc1cc(S(=O)(=O)Nc2ccc(C(=O)/C=C/c3ccc(O)cc3)cc2)ccc1F: > 100 µM

Pending molecule:
// recorded GI50 for CCOC(=O)/C=C/C1=C(c2cccs2)c2ccccc2CC1 : 17.1 µM

----------
The reader will find reported TGI values listed item by item below.
# Tested on: MDA-MB-435
# measurement notes: NCI tumour cell line growth inhibition, 48 h

Illustrative cases are given below, each with its answer.
Cc1cc2c(cc1Cl)SC1=NN(C)C(N(C)C)N1S2(=O)=O (stereo not given): > 100 µM
COc1ccc(OC2OC(CO)C(OCc3ccccc3)C(OCc3ccccc3)C2OCc2ccccc2)cc1 (stereo not given): > 100 µM
O=c1[nH]c2nc3ccccc3nc2[nH]c1=O: > 100 µM

// recorded TGI for COc1ccc2[nH]c(O)c(C(=Nc3ccc(N(C)C(=O)CN4CCN(C)CC4)cc3)c3ccccc3)c2c1 : 11.3 µM

// recorded TGI for CC1(C)OCC2OC3([C@@H]4OC(C)(C)O[C@H]4CO)OC(C)(C)OC3C2O1 (stereo not given in full) : > 100 µM
